- assaySummary: modulators of CIT2-GFP expression in yeast, confirmation, S. cerevisiae, GFP fusion, cherry picks, mother/daughter gates (AID 2274)
- conditionDetails: S. cerevisiae CIT2-GFP strain, flow cytometry, 3 h; measured here: mother cell gate; at 10 µM; stronger effect = higher value
observedProperty: GFP response, % of DMSO (%)

{"columns": ["molecule", "assayResult"],
 "data": [
  ["COc1ccc(-c2ccc(SCC(=O)N3c4ccccc4CC3C)nn2)cc1OC (stereo unspecified)", 95.6],
  ["Cc1cc(OCc2ccc(C(=O)NN=C3CCCC3)cc2)ccc1Cl", 89.1],
  ["CC[n+]1ccc(/C=C/c2c[nH]c3ccccc23)cc1", 119],
  ["Cc1cc(=O)[nH]c(-n2nc(C)cc2C)n1", 91.9],
  ["COc1ccccc1NC(=O)c1ccc([N+](=O)[O-])o1", 106],
  ["Cc1cccc(C)c1OCCOC(=O)c1n[nH]c2ccccc12", 93.3],
  ["Cc1ccc(C(=O)Oc2oc(-c3ccccc3)nc2C=Nc2ccc(N(C)C)cc2)cc1", 114],
  ["Cc1c([N+](=O)[O-])cnc(Sc2ccccc2)c1[N+](=O)[O-]", 99.7],
  ["CSC1=NS(=O)(=O)c2c(C)nn(C)c2S1", 78.1],
  ["CN(C)CCCNc1cc(C(C)(C)C)nc2c(-c3ccc(Cl)cc3)cnn12", 92.6],
  ["O=C(NCc1ccc2c(c1)OCO2)c1nc(S(=O)(=O)Cc2ccccc2F)ncc1Cl", 96]
]}
